B1: LINE1-mini (parent)
chain: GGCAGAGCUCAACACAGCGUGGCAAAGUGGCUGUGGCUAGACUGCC

variants of: B1; assay: self-cleavage, relative activity (ratio to wild type); higher = more cleavage; in vitro, sequencing; the parent is a self-cleaving ribozyme
Measure: self-cleavage
Format: numeric value only, no unit, no commentary.

Reference set (10 entries):
| Residue Change | Test Value |
| --- | --- |
| A14G G22C | 0.31 |
| A25U A26U | 1.23 |
| U20C G22C | 0.19 |
| C8A A11U | 0.03 |
| U9A A24U | 0.33 |
| U20A G36U | 0.05 |
| G21A G29A | 1 |
| A6C C23G | 0.43 |
| G17C A25G | 0.18 |
| G1A G33C | 0.05 |

Just so you know, measured self-cleavage for A16U A25G came out at 0.07

The measurements presented in this section are drawn from the RNAGym collection of RNA variant scans (doi:10.7554/elife.90254).
